Target: glucagon receptor (human, UniProt P47871 26-477)
Sequence (P47871 26-477): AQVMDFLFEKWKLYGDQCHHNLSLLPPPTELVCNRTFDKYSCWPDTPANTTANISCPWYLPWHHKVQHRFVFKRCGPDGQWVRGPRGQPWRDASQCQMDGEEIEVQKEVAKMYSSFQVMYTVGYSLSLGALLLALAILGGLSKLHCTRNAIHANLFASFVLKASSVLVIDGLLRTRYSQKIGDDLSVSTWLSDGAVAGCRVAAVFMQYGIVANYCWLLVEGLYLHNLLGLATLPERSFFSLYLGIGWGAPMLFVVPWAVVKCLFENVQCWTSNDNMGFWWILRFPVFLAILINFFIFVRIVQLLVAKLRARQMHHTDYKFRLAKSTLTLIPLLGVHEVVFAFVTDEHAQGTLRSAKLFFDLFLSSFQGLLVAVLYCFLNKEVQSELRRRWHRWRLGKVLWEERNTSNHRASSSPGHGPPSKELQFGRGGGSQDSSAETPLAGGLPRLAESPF
Assay: cell-based or functional assay
*1 amine or outer side, *2 acyl side, *3 side chain or, on linkers, in order; H or OH if unused. Where no end group is shown, it is not given here. Side-chain parts run from the residue outwards. The star is where a group is joined. C18 diacid = O=C(O)CCCCCCCCCCCCCCCCC(=O)*; C16 diacid = O=C(O)CCCCCCCCCCCCCCC(=O)*; γGlu = O=C(O)[C@H](CCC(=O)[*:2])N[*:1]; AEEA = NCCOCCOCC(=O)O
Attribute Measured: Assay (I) Glucagon [EC50] (nM)
Field: numeric (nM). Do not append units.

Measured Assay (I) Glucagon [EC50] of HSQGTFTSDVSKYLDTRRAQEFVK([AEEA-AEEA-γGlu-γGlu-γGlu-C18 diacid])WLLST : 0.08

Measured Assay (I) Glucagon [EC50] of HSQGTFTSDYSKYLESRRAQDFVK([γGlu-AEEA-AEEA-γGlu-C18 diacid])WLLNL : 1.9

Measured Assay (I) Glucagon [EC50] of HSQGTFTSDYSRYLDARRAQDFVK([γGlu-γGlu-γGlu-C18 diacid])WLLST : 0.066

Measured Assay (I) Glucagon [EC50] of HSQGTFTSDYSKYLDERRAQDFVK([γGlu-γGlu-AEEA-AEEA-γGlu-C18 diacid])WLLST : 0.13

Measured Assay (I) Glucagon [EC50] of HSQGTFTSDYSRYLDLRRAQDFVK([γGlu-γGlu-γGlu-C16 diacid])WLLST : 0.027
